Each recorded value in this set is attributed to patent EP1322622B1.

# experimental system: D4 human receptors (Homo sapiens)
# Construct: expressed in transfected cells; host or cells: CHO cells
# Sequence (P21917 whole entry): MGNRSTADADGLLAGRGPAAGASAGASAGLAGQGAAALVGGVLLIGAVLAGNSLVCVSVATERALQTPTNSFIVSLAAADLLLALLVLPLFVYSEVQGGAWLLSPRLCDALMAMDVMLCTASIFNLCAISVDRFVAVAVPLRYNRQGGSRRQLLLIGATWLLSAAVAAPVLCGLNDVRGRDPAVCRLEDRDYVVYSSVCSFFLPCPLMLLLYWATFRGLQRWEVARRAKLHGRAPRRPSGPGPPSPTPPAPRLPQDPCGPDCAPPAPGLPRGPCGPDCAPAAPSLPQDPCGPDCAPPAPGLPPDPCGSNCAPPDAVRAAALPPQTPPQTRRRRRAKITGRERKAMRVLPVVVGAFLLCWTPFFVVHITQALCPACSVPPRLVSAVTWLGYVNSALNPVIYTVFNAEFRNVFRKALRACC
# protocol notes: D4 Radioligand Receptor Binding Assay ([3H] YM-09151-2, CHO cell membranes)
# measurement parameters: compound at 10^-7 M, singlicate; [3H] YM-09151-2 0.15-0.25 nM; read-out: D4 receptor binding assay % inhib. (10^-7 M)
reported property: inhibition at 0.1 µM (%)
Use % as the unit, but write only the number.

Task: So what does the record say about inhibition at 0.1 µM for COc1ccccc1N1CCN(CCn2c(=O)n(CCNS(C)(=O)=O)c3ccccc32)CC1 [compound 255] ?
Output: 33

Task: Input O=c1n(CCO)c2ccccc2n1CCCCN1CCc2c([nH]c3ccccc23)C1 [compound 62]
Output: 96

Task: Ok, now O=c1n(CCO)c2ccccc2n1CCN1CCN(c2cccc(Cl)c2)CC1 [compound 183]
Output: 62

Task: Would you mind doing COCCn1c(=O)n(CCCCN2CCN(c3cccc(C(F)(F)F)c3)CC2)c2ccccc21 [compound 9] as well?
Output: 32

Task: Input O=c1n(C/C=C/CN2CCN(c3ccccn3)CC2)c2ccccc2n1CCN1CCCCC1 [compound 330]
Output: 84

Task: Here is the next molecule: O=c1n(CCO)c2ccccc2n1CCN1CCN(c2cccc(C(F)(F)F)c2)CC1 [compound 187]
Output: 36
